- Target under test: Alk kinase (Homo sapiens, UniProt Q9UM73)
- Construct: purchased Millipore (KinaseProfiler Service)
- Sequence (Q9UM73 19-1620): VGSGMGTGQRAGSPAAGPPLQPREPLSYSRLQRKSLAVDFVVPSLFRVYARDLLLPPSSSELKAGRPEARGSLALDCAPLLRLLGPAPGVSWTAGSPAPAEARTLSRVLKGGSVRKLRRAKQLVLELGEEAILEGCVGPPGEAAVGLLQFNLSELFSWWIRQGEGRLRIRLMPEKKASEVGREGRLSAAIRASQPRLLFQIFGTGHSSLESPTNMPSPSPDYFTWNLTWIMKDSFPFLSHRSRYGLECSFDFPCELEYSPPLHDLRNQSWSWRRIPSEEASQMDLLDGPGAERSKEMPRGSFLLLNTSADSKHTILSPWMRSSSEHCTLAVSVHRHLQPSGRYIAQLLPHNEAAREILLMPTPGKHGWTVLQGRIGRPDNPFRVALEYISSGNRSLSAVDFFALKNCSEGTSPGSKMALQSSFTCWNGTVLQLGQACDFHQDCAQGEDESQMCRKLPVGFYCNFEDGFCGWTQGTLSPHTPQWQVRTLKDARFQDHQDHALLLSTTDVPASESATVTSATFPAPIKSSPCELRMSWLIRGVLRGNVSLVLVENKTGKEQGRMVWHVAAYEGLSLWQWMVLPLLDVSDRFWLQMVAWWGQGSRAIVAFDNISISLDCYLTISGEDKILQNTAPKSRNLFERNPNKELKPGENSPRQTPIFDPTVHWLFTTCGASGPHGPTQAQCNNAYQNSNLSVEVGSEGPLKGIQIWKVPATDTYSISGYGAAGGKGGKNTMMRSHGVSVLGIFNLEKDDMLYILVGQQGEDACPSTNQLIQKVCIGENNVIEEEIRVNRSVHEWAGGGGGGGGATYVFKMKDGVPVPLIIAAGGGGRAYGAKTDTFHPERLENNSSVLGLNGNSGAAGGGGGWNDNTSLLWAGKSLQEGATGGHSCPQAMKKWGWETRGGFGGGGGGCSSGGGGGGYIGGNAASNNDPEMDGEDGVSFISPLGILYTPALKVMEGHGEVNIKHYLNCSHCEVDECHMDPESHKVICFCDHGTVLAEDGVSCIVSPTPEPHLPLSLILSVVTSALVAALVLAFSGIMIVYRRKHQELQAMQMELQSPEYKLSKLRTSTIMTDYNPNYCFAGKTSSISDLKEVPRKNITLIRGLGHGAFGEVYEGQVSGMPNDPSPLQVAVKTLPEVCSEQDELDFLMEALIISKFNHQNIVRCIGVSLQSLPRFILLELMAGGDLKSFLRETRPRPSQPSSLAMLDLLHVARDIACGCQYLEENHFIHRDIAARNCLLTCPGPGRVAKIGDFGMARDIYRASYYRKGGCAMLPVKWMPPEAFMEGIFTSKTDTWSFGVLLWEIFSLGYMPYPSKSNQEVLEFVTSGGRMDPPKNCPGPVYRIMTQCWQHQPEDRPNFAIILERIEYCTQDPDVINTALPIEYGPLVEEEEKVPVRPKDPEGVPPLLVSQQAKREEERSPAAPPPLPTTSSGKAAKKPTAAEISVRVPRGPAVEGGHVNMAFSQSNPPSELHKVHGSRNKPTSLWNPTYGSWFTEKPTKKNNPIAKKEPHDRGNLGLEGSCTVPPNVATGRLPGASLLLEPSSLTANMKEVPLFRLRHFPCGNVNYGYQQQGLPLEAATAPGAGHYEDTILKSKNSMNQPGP
- Experiment summary: KinaseProfiler kinase inhibition assay, Alk
- Type: biochemical
- Experimental conditions: 1 μM compound
Recorded endpoint: inhibition at 1 µM (%)

Solved cases below.
Item smiles | Target under test | inhibition at 1 µM [%]
COc1ccc(-c2cc(Nc3cc(Oc4ccc5[nH]c(C)cc5c4F)ncn3)n[nH]2)cc1OC | Alk kinase (Homo sapiens, UniProt Q9UM73) | -10
Cc1cc2c(F)c(Oc3cc(Nc4cc(-c5ccccn5)[nH]n4)ncn3)ccc2[nH]1 | Alk kinase (Homo sapiens, UniProt Q9UM73) | 6
CCN1CCN(c2ccc(Nc3ncnc(Oc4ccc5[nH]c(C)cc5c4F)c3F)nc2)CC1 | Alk kinase (Homo sapiens, UniProt Q9UM73) | -48

a. CCN1CCN(c2ccc(Nc3ncnc(Oc4cc(F)c5[nH]c(C)cc5c4F)c3C#N)cc2)CC1
b. Cc1cc2c(F)c(Oc3cc(Nc4ccc(N5CCNCC5)cc4)ncn3)cc(F)c2[nH]1
Dear colleague, could you let me know whether a or b has the lower recorded inhibition at 1 µM? Thanks. # respond with the chosen item's label
a
(a: 3%, b: 54%)

====

Reported GI50 values for the following compounds.
- Test system: AN3_CA
- Experiment summary: CellTiterblue viability, 72 hr, AN3_CA
- Type: cell-based
- Experimental conditions: Homo sapiens, AN3-CA, AN3_CA cells

Solved cases below.
Item smiles | GI50
Cc1cc2c(F)c(Oc3cc(Nc4cc(C5CC5)[nH]n4)ncn3)ccc2[nH]1 | > 500 nM
Cc1cc2c(F)c(Oc3ncnc(Nc4ccc(N5CCN(C)CC5)cc4)c3N)ccc2[nH]1 | > 500 nM
COc1cc(CCc2cc(Nc3cc(Oc4ccc5[nH]c(C)cc5c4F)ncn3)n[nH]2)cc(OC)c1 | > 500 nM
Cc1cc2c(F)c(Oc3ncnc(Nc4ccc(N5CCN(C)CC5)cc4)c3C#N)ccc2[nH]1 | 214 nM

Supply GI50 value. Item: `CCOC(=O)c1cc(Nc2cc(Oc3ccc4[nH]c(C)cc4c3F)ncn2)n[nH]1`
> 500 nM

Supply GI50 value. Item: `COc1ccc(-c2cc(Nc3cc(Oc4ccc5[nH]c(C)cc5c4F)ncn3)n[nH]2)cc1OC`
211 nM

Supply GI50 value. Item: `Cc1cc2c(F)c(Oc3ncnc(Nc4ccc(N5CCN(C)CC5)cc4)c3F)ccc2[nH]1`
> 500 nM

Supply GI50 value. Item: `Cc1cc2c(F)c(Oc3ncnc(Nc4ccc(N5CCN(C)CC5)cn4)c3F)ccc2[nH]1`
> 500 nM

====

- Tested on: Kato III
- Experiment summary: CellTiterblue viability, 72 hr, Kato III
- Format: cell-based
- Experimental conditions: Homo sapiens, Kato III cells
Reported GI50 values for the following molecules.
State just the number; it will be interpreted in nM.

Solved cases below.
Molecule | Recorded endpoint | Reading
CCN1CCN(c2ccc(Nc3ncnc(Oc4ccc5[nH]c(C)cc5c4F)c3C#N)cc2)CC1 [Compound 53] | GI50 | 34
COc1cc(CCc2cc(Nc3cc(Oc4ccc5[nH]c(C)cc5c4F)ncn3)n[nH]2)cc(OC)c1 [Example 22] | GI50 | 229
Cc1cc2c(F)c(Oc3ncnc(Nc4ccc(N5CCNCC5)cc4)c3C#N)ccc2[nH]1 [Compound 57] | GI50 | 51
Cc1cc2c(F)c(Oc3ncnc(Nc4ccc(N5CCN(C)CC5)cc4)c3F)ccc2[nH]1 [Example 24] | GI50 | 386
CC(=O)N1CCN(c2ccc(Nc3cc(Oc4cc(F)c5[nH]c(C)cc5c4F)ncn3)cc2)CC1 [Compound 50] | GI50 | 348

Attention now turns to another entry.
Supply GI50 value. Item: CCN1CCN(c2ccc(Nc3ncnc(Oc4ccc5[nH]c(C)cc5c4F)c3C(N)=O)cc2)CC1 [Compound 68]
23
